- Test system: KM12 colon
- Assay Info: NCI-60 one-dose screen, 48 h (100 = growth as untreated, 0 = no growth, -100 = all killed)
- Condition Context: 10 µM
Compounds without any hit were thinned out: in the full panel of roughly 83,000, 20% have a hit.
// reported growth for each item listed
Your answer is read as %, so omit the unit and give the number.

{"Smiles String": "Oc1[nH]c2ccc(Cl)cc2c1/C=c1/ccc2c(c1)N=C(c1cccs1)N=2", "growth, %": 58}

Summary for this compound, `O=C(Nc1cccc(-n2cc(-c3ccncc3)c(-c3cc(O)cc(Cl)c3)n2)c1)c1cc(C(F)(F)F)cc(C(F)(F)F)c1` : growth is 21.2

Measured growth of `COc1ccc(-c2nc3sccn3c2-c2nc3c([nH]2)C(=O)c2ccccc2C3=O)cc1` : 103

Please fill in: growth reported for `COc1ccc(-c2nnc(-c3c(-c4ccccc4)nc4ncccn34)o2)cc1OC` = 100

Field growth (entry `CC/C(C)=C(\C)C(=O)O` ) reads 103

Consider `Cc1ccc(NC(=O)Nc2cccnc2)cc1NC(=O)Nc1cccnc1` . Its measured growth is 87.2

// recorded growth for `COc1cc(C)ccc1C(=O)c1ccc(C)cc1OC` : 22.1

The reported value for `Cc1cc(N(CCCNc2ccnc3cc(Cl)ccc23)Cc2ccc3c(c2)OCO3)nc(N2CCCCC2)n1` in terms of growth is 10.4

Lab note: measured growth of `COc1ccc(-c2csc(NC(=O)CSc3nc(C)c(-c4ccccc4)n3Nc3ccccc3)n2)cc1` was 41.5

// `O=S(=O)(NCCCNc1nccc(-c2c(-c3ccc(F)cc3)nc3sccn23)n1)c1ccc2ccccc2c1` : growth value = 19.9

###

- System: OVCAR-3 ovarian
- Assay Info: NCI-60 one-dose screen, 48 h
- Condition Context: 10 µM
This is part of a sample that, as a whole, favours compounds with a hit. Of some 83,000 tested, about 20% had one in any assay. Active and inactive are the calls of the source. Rule for the calls: active = growth percent below 10; inactive = the rest.
// allowed return values: yes (1) for active, no (0) for inactive

Please review the entries below; each comes with its answer.
{"Compound": "c1ccc(CSc2nnc3c4c5c(sc4nc(-c4cccnc4)n23)CCCCCC5)cc1", "Group": "no (0)"}
{"Compound": "COc1ccc2c(c1)C(=O)c1c-2c(=O)n(CCCN(C)C)c2cc(OC)c(OC)cc12", "Group": "no (0)"}
{"Compound": "CCOC(=O)C1(CC(C)C)CCOC1=O (configuration not stated)", "Group": "no (0)"}
{"Compound": "COc1ccc2c(c1)sc1nc(-c3ccccc3)c(-c3cccnc3)n12", "Group": "no (0)"}
{"Compound": "CCC(=O)N1C/C(=C/c2ccc(OC)cc2)C(=O)/C(=C/c2ccc(OC)cc2)C1", "Group": "yes (1)"}
{"Compound": "COc1ccc2c(c1)[n+]([O-])c(C#N)c(NC(=O)c1ccco1)[n+]2[O-]", "Group": "no (0)"}
{"Compound": "O=C(Nc1nc(-c2ccccc2Cl)cs1)c1cc(-c2ccc(Cl)cc2)nc2ccc(Cl)cc12", "Group": "yes (1)"}
{"Compound": "CC(=O)/C(=C/c1ccccc1)C(=O)CC(C)C", "Group": "no (0)"}
{"Compound": "Clc1ccc(Sc2nc(NC3CC3)nc(Sc3ccc(Cl)cc3)n2)cc1", "Group": "no (0)"}
{"Compound": "O=C1OCC2=C1C(c1cccc(Cl)c1)c1cc3c(cc1N2CCO)CCC3 (configuration not stated)", "Group": "yes (1)"}

Kindly provide the recorded test outcome for the following compound: `COc1cc(/C=C/C(=O)c2ccc(Cl)cc2)ccc1OS(=O)(=O)c1ccc(C)cc1` no (0)

# lookup: test call for `COc1ccc2c(c1)O/C(=C\c1ccc([N+](=O)[O-])o1)C2=O` yes (1)

Check the results log: what was the call for `O=C1/C(=C\c2ccc(Cl)cc2)CN(C(=S)Nc2ccccc2)C/C1=C\c1ccc(Cl)cc1` ? yes (1)

For this compound, state the assay outcome: `Cc1ccc(S(=O)(=O)Oc2ccc3c4c(c(=O)oc3c2)CCCCC4)cc1` no (0)

###

- System: HCC-2998 colon
- Assay Info: NCI-60 one-dose screen, 48 h (100 = growth as untreated, 0 = no growth, -100 = all killed)
- Condition Context: 10 µM
About 83,000 compounds went through this panel and 20% of them were active in at least one assay; those are over-represented in the sample as a whole.
I'd appreciate it if you marked entries 1 when growth is lower than 70% and -1 when it is not.

{"Compound": "COc1ccc(Nc2cc(C)nc(NCCCNc3ccnc4cc(Cl)ccc34)n2)cc1", "Group": 1}
{"Compound": "Cc1ncc(-c2ccoc2)c(NC2CCCCCC2)n1", "Group": -1}
{"Compound": "COc1cc(C)ccc1C(=O)c1ccc(C)cc1OC", "Group": 1}
{"Compound": "O=[N+]([O-])c1cccc(N=Cc2ccc3c(c2)OCO3)c1", "Group": -1}
{"Compound": "Cc1ccc(-c2nc(/C=C3/C(=O)N(C)c4ccc(F)cc43)c3ccccn23)cc1", "Group": -1}

Answer whether the compound `COc1cc(-c2nc(-c3nnc(-c4ccc(F)c(Cl)c4)o3)c3ccccn23)cc(OC)c1OC` has growth strictly less than 70% 1

hey, is growth for `Cc1cc(N(CCCNc2ccnc3cc(Cl)ccc23)Cc2ccc3c(c2)OCO3)nc(N2CCOCC2)n1` lower than 70% or not? 1

Dear reviewer, please state whether `N=C(N)c1ccc(-c2ccc(-c3cccs3)s2)cc1` has growth strictly beneath 70%. 1

Hi there! Is growth for `Cc1cc(N(CCCNc2ccnc3cc(Cl)ccc23)Cc2ccc3c(c2)OCO3)nc(N2CCCCC2)n1` below 70%, do you know? 1

# strict comparison: is reported growth < 70%? input = OCC1OC(n2cnc3c(N/N=C\c4ccccn4)ncnc32)C(O)C1O (stereo not given) 1

Would you kindly verify if growth of C=C1c2c(C)nn(-c3ccc(OC)cc3)c2N(C)C23C[C@@H]1C1(C)c4c(C)nn(-c5ccc(OC)cc5)c4N(C)C(C)(C[C@H]12)C3 (stereo not given in full) is strictly less than 70%? 1

###

- Test system: T-47D breast
- Assay Info: NCI-60 one-dose screen, 48 h (100 = growth as untreated, 0 = no growth, -100 = all killed)
- Condition Context: 10 µM
About 83,000 compounds went through this panel and 20% of them were active in at least one assay; those are over-represented in the sample as a whole.
Endpoint Label: growth (%)
Lab book: enter the figure in %, no units written.

{"Compound": "O=C1C(c2ccccc2)C2C=CC(C2)N1O (stereo not given)", "Study Target": "T-47D breast", "Unit Annotation": "%", "growth": 92.1}
{"Compound": "N=C(N)c1ccc(-c2ccc(-c3ccccc3)o2)nc1", "Study Target": "T-47D breast", "Unit Annotation": "%", "growth": 81.5}
{"Compound": "CCCCCC(=O)c1ccc(OCCCN2CCN(C(=O)OCC)CC2)cc1", "Study Target": "T-47D breast", "Unit Annotation": "%", "growth": 88.1}

Record `COc1cc(-c2cc(C(=O)N3CCN(C(=O)c4ccccc4NCc4cccs4)CC3)nc3cc(-c4ccccc4)nn23)cc(OC)c1OC` . Reported growth: 79.6

Input `CC/C(=N\N=C(/CC)c1ccc(Br)cc1)c1ccc(Br)cc1` . Output growth: 83

###

- Test system: SK-MEL-28 melanoma
- Assay Info: NCI-60 one-dose screen, 48 h (100 = growth as untreated, 0 = no growth, -100 = all killed)
- Condition Context: 10 µM
The panel holds about 83,000 compounds, 20% with a hit somewhere; the sample as a whole holds those more often. Activity calls are given as the source filed them. Rule for the calls: active = growth percent below 10; inactive = the rest.
Quick reference: growth of the listed items.

{"Compound": "COc1cc(NC(=O)CCSc2nc3ccc(Cl)cc3c(=O)n2Cc2ccccc2)cc(OC)c1OC", "Obs Value": "70.7% (inactive)"}

GET /value?item= COc1ccc(-c2nsc3c2NC(=O)CC3c2ccc(F)cc2)cc1 (stereo not given) &field=growth returns 57.5% (inactive)

For this compound ( CCOC(=O)N1C=CC2C=CC1C1C=CC=CC2N1C(=O)OCC (stereo not given) ), measured growth is 87.8% (inactive)

Summary for this compound, `COc1ccc(/C=C/C(=O)Nc2ccc(-c3nc4ccc(OC)cc4s3)cc2)cc1` : growth is 111% (inactive)

The compound identified as `Cc1nc2c(c(=O)[nH]1)OCN(Cc1ccccc1)C2` registered its growth at 105% (inactive)

So, `CSC1=NCCCC1` ? Its growth was 109% (inactive)

Summary for this compound, `O=C(Nc1cccc(-n2cc(-c3ccncc3)c(-c3ccc(O)c(Cl)c3)n2)c1)c1ccc(N2CCOCC2)c(C(F)(F)F)c1` : growth is 49.7% (inactive)

###

- System: UACC-62 melanoma
- Assay Info: NCI-60 one-dose screen, 48 h (100 = growth as untreated, 0 = no growth, -100 = all killed)
- Condition Context: 10 µM
Compounds without any hit were thinned out: in the full panel of roughly 83,000, 20% have a hit.
# cutoff 90% applies to growth; >= gives met, < gives not met

The following compounds have reported results that may help.
{"Compound": "Cc1cs/c(=N\\NC(=O)c2cc(-c3cc4ccccc4o3)nn2-c2ccccc2)n1-c1ccccc1", "Group": "not met"}
{"Compound": "O=C1/C(=C\\c2ccc(F)cc2)CN(C(=O)c2ccccc2)C/C1=C\\c1ccc(F)cc1", "Group": "not met"}

# evaluate next
State whether the measured growth reaches 90%, counting equality as reaching it, for `N#Cc1cccc(OCc2nc(N)nc(N)c2-c2ccc(Cl)c(Cl)c2)c1` not met

Source listed as PubChem BioAssay (NCI).
